Study Target: human recombinant cathepsin K (Homo sapiens, UniProt P43235)
Sequence (P43235 115-329): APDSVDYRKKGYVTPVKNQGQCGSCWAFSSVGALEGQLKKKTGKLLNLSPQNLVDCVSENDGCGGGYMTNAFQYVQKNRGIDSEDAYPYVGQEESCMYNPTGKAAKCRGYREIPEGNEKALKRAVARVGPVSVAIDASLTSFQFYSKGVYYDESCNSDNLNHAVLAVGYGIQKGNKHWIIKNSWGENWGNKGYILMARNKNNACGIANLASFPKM
Test Summary: Determination of cathepsin K proteolytic catalytic activity (Ki)
Cond: fluorogenic substrate H-D-Ala-Leu-Lys-AMC; read-out: Ki Cat. K
Measure: Ki (nM)

These recorded examples may help you get a feel for the data.
Compound: NC(=O)C(=O)C1(NC(=O)[C@H](CC2(F)CCCC2)NC(=O)C2(C(F)(F)F)CCC2)CCC1
Output Unit: nM
Ki: 15000
--
Compound: Cc1ccc(C(=O)N[C@@H](CC2(F)CCCC2)C(=O)NC2(C(=O)C(N)=O)CCC2)cn1
Output Unit: nM
Ki: 650
--
Compound: CC(C)(C)OC(=O)N[C@@H](CC1(F)CCCC1)C(=O)NC1(C(=O)C(N)=O)CC1
Output Unit: nM
Ki: 1200
--
Compound: CCOC(=O)NC(CC1(F)CCCC1)C(=O)NC1(C(=O)C(N)=O)CCC1 (stereo not shown)
Output Unit: nM
Ki: 960
--
Compound: NC(=O)C(=O)C1(NC(=O)[C@H](CC2(F)CCCC2)NC(=O)c2ccc(F)cc2F)CCC1
Output Unit: nM
Ki: 490

a: NC(=O)C(=O)C1(NC(=O)[C@H](CC2(F)CCCC2)NC(=O)C2(C(F)(F)F)CC2)CC1
b: NC(=O)C(=O)C1(NC(=O)[C@H](CC2(F)CCCC2)NC(=O)C2(C(F)(F)F)CC2)CCC1
## Input Could you determine which record has the numerically smaller Ki? Candidates: a and b State the label of the item chosen.
## Output b

---

Study Target: human recombinant cathepsin K (Homo sapiens, UniProt P43235)
Test Summary: Determination of cathepsin K proteolytic catalytic activity (Ki)
Cond: fluorogenic substrate H-D-Ala-Leu-Lys-AMC; read-out: Ki Cat. K
Experimental: Convenient assays for cathepsin K are carried out using human recombinant enzyme, such as that described in PDB. • ID BC016058 standard; mRNA; HUM; 1699 BP. • DE Homo sapiens cathepsin K (pycnodysostosis), mRNA (cDNA clone MGC:23107 • RX MEDLINE;. RX PUBMED; 12477932. • DR RZPD; IRALp962G1234. • DR SWISS-PROT; P43235; […] Potential inhibitors are screened using the above assay with variable concentrations of test compound. […] Ki values were calculated according to equation 1. […]
Measure: Ki (µM)

These recorded examples may help you get a feel for the data.
Compound: CC1(C[C@H](NC(=O)OC(C)(C)C)C(=O)NC2(C(=O)C(N)=O)CCC2)CCCC1
Measure: Ki
Observed Result: 0.72

Compound: CC1(C[C@H](NC(=O)C(C)(C)F)C(=O)NC2(C(=O)C(N)=O)CC(F)(F)C2)CCCC1
Measure: Ki
Observed Result: 0.99

P: CC(C)OC(=O)N[C@@H](CC1(F)CCCC1)C(=O)NC1(C(=O)C(N)=O)CCC1
Q: CCOC(=O)N[C@@H](CC1(F)CCCC1)C(=O)N[C@]1(C(=O)C(N)=O)C[C@@H](F)C1
R: NC(=O)C(=O)C1(NC(=O)[C@H](CC2CCC2)NC(=O)C2CC2(F)F)CCC1 (single isomer, unassigned)
S: CCOC(=O)N[C@@H](CC1(F)CCCC1)C(=O)NC1(C(=O)C(N)=O)CCCC1
T: CC1(C[C@H](NC(=O)c2ccc(F)cc2)C(=O)NC2(C(=O)C(N)=O)CCC2)CCCC1
## Input Task for the reader: rank each entry by its Ki, from the minimum upward. Response field: labels, in requested order.
## Output T, R, P, Q, S
